Test system: high-fat diet-induced obesity experimental animals (C57BL/6J mice)
testSummary: Blood analysis: serum lipid concentrations in high-fat diet-induced obesity mice
Type: in vivo, mouse
testSettings: C57BL/6J mice, high-fat diet 13 weeks, oral once a day, 10 mmol; 12 h fasted; mean ± S.D.
measurementLabel: serum LDL

Request: Name the recorded serum LDL for CC(=O)[O-].[Na+] [acetate, sodium acetate] .
Response: 32.34 ± 1.44^A mg/dl

Request: For O=C[O-].[Na+] [formate, sodium formate] then?
Response: 26.24 ± 0.29^CD mg/dl

Request: Thanks! And CCCC(=O)[O-].[Na+] [butyrate, sodium butyrate] ?
Response: 24.95 ± 1.23^D mg/dl

Request: Repeat for the following compound: CCC(=O)[O-].[Na+] [propionate, sodium propionate]
Response: 30.41 ± 0.51^B mg/dl

----------
Hi there, I'd appreciate the recorded weight of epididymal fat, lower value compared with the high-fat diet control group for every entry that follows.
Test system: high-fat diet-induced obesity experimental animals (C57BL/6J mice)
testSummary: Organ weights (fat tissues, prostate, liver, spleen) in high-fat diet-induced obesity mice
Type: in vivo, mouse
testSettings: high-fat diet 13 weeks, oral, 10 mmol
Please state the figure in %; there is no need to write the unit.

Request: Checklist item: weight of epididymal fat, lower value compared with the high-fat diet control group tested on high-fat diet-induced obesity experimental animals (C57BL/6J mice), entry CC(=O)[O-].[Na+] [acetate, sodium acetate] , value?
Response: 7.6

Request: Try this compound next: CCCC(=O)[O-].[Na+] [butyrate, sodium butyrate]
Response: 20

Request: Cool, now CCC(=O)[O-].[Na+] [propionate, sodium propionate]
Response: 23.6

Request: Next compound: O=C[O-].[Na+] [formate, sodium formate]
Response: 19.6

----------
Tested on: high-fat diet-induced obesity experimental animals (C57BL/6J mice)
testSummary: Blood analysis: serum lipid concentrations in high-fat diet-induced obesity mice
Assay type: in vivo, mouse
testSettings: C57BL/6J mice, high-fat diet 13 weeks, oral once a day, 10 mmol; 12 h fasted; mean ± S.D.
For each entry below, report its serum HDL value.

Request: Item: CC(=O)[O-].[Na+] [acetate, sodium acetate] Test system: high-fat diet-induced obesity experimental animals (C57BL/6J mice) Read-out: serum HDL Value: ?
Response: 61.09 ± 2.21^A mg/dl

Request: // repeat for CCCC(=O)[O-].[Na+] [butyrate, sodium butyrate] and report
Response: 55.99 ± 0.43^B mg/dl

Request: Entry to check: CCC(=O)[O-].[Na+] [propionate, sodium propionate]
Response: 50.12 ± 1.69^C mg/dl

Request: Would you kindly repeat that for O=C[O-].[Na+] [formate, sodium formate] ?
Response: 41.51 ± 3.56^D mg/dl
